Tested on: rat hepatic microsomal PTPases
Settings: PTPase activity, compound at 50 μM
measured.endpoint: % Change from Control (%)

Oc1c(Br)cc(-c2c3ccccc3c(Cl)c3sc4ccccc4c23)cc1Br [Example 60] : -25.07

[P] COc1c(Br)cc(-c2c3ccccc3c(Br)c3sc4ccccc4c23)cc1Br [Example 22]
[Q] NC(=O)[C@@H](Cc1ccccc1)Oc1c(Br)cc(-c2c3ccccc3c(Br)c3sc4ccccc4c23)cc1Br [Example 166]
[R] C[C@@H](Oc1cc(-c2c3ccccc3c(Br)c3sc4ccccc4c23)ccc1Br)C(=O)O [Example 144]
[S] Oc1c(Br)cc(-c2c3ccccc3c(Br)c3oc4ccccc4c23)cc1Br [Example 210]
Input: Rank the items in ascending order with respect to % Change from Control. Answer with the labels in sequence, matching the requested order.
Output: R, S, Q, P

[P] N#C[C@@H](Cc1ccccc1)Oc1c(Br)cc(-c2c3ccccc3c(Br)c3sc4ccccc4c23)cc1Br [Example 170]
[Q] O=C(O)C(Cc1ccc2ccccc2c1)Oc1c(Br)cc(-c2c3ccccc3c(Br)c3sc4ccccc4c23)cc1Br (centres unmarked) [Example 156]
Input: Of P versus Q , which is the one with smaller reported % Change from Control? Answer by quoting the chosen item's label.
Output: Q
(Q: -71.12%, P: -18.79%)

* * *

Test system: rat hepatic microsomal PTPases
Settings: PTPase activity, compound at 50 μM
measured.endpoint: % Change from Control (%)

Cc1cc(-c2c3ccccc3c(C)c3sc4ccccc4c23)cc(C)c1O[C@H](Cc1ccccc1)C(=O)O : -69.13
O=C(O)[C@H](Cc1ccccc1)Oc1ccc(-c2c3ccccc3c(Br)c3sc4ccccc4c23)cc1 : -68.03
CC(C)c1cc(-c2c3ccccc3c(Br)c3sc4ccccc4c23)cc(C(C)C)c1O[C@H](Cc1ccccc1)C(=O)O : -64.89
C[C@@H](Oc1c(Br)cc(-c2c3ccccc3c(Sc3ccccc3)c3sc4ccccc4c23)cc1Br)C(=O)O : -59.03
O=C(O)[C@@H](CCc1ccccc1)Oc1c(Br)cc(-c2c3ccccc3c(Br)c3sc4ccccc4c23)cc1Br : -101.01

[a] C[C@@H](Oc1c(Br)cc(-c2c3ccccc3c(Br)c3sc4ccccc4c23)cc1Br)C(=O)O
[b] Oc1c(F)ccc(-c2c3ccccc3c(Br)c3sc4ccccc4c23)c1F
Input: Compare the recorded % Change from Control of a and b ; state which is larger. Answer by quoting the chosen item's label.
Output: b

* * *

Target: Human recombinant PTP1B (Homo sapiens, UniProt P18031)
Construct: made in house
Sequence (P18031 whole entry): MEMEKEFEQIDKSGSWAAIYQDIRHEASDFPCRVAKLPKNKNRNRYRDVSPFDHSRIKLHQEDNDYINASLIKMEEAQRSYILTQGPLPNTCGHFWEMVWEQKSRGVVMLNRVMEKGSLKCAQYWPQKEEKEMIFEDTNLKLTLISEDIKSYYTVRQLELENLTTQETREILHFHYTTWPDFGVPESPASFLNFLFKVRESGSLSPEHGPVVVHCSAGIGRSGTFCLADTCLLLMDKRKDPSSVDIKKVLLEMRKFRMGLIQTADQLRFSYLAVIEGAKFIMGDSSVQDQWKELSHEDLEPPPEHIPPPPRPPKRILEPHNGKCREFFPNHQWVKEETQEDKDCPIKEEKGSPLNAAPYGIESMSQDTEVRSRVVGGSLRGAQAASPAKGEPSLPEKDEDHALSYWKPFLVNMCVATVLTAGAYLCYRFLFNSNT
Type: biochemical
Settings: read-out: IC50
pIC50: −log10 of the molar value.
measured.endpoint: pIC50

O=C(O)[C@@H](CCc1ccccc1)Oc1c(Br)cc(-c2c3ccccc3c(Br)c3sc4ccccc4c23)cc1Br : 7.35
CC(C)c1cc(-c2c3ccccc3c(Br)c3sc4ccccc4c23)cc(C(C)C)c1O[C@H](C)C(=O)O : 6.69

[I] N#C[C@@H](Cc1ccccc1)Oc1c(Br)cc(-c2c3ccccc3c(Br)c3sc4ccccc4c23)cc1Br
[II] Oc1ccc(-c2c3ccccc3c(Br)c3sc4ccccc4c23)cc1
Input: Of I versus II , which is the one with smaller reported pIC50? Answer by quoting the chosen item's label.
Output: II

* * *

Attribute: change in vivo at 10 mg/kg
Test system: diabetic (ob/ob) mice
Experiment: Blood glucose lowering activity in diabetic (ob/ob) mice
Type: in vivo, mouse
Details: Mus musculus, po, 96 h, ob/ob mice, dose 10 mg/Kg, plasma glucose Day 4, 7 or 14; read-out: % Change Glucose from Vehicle
Give the quantity in %, number only.

Known change in vivo at 10 mg/kg results, listed for orientation:
O=C(O)[C@@H](Cc1ccccc1)Oc1c(Br)cc(-c2c3ccccc3c(Br)c3oc4ccccc4c23)cc1Br : -28.7
O=C(O)[C@@H](Cc1ccccc1)Oc1c(Br)cc(-c2c3ccccc3c(Br)c3sc4ccccc4c23)cc1Br : -26.1
C[C@@H](Oc1c(Br)cc(-c2c3ccccc3c(Br)c3sc4ccccc4c23)cc1Br)C(=O)O : 1.37

// field: change in vivo at 10 mg/kg; key: O=C(O)COc1c(-c2ccccc2)cc(-c2c3ccccc3cc3sc4ccccc4c23)cc1-c1ccccc1 ; value = -22.8

// field: change in vivo at 10 mg/kg; key: CC(C)c1cc(-c2c3ccccc3c(Br)c3sc4ccccc4c23)cc(C(C)C)c1OCC(=O)O ; value = -24.9
